- ASSAY_NAME: Inhibition of trypsin
PROPERTY_MEASURED: IC50 (µM)

>>> observed_measurement("CCCC(=O)N[C@@H](CCC(N)=O)C(=O)N[C@@H]1C(=O)N[C@@H](CCCNC(N)=O)C(=O)N[C@H]2CC[C@@H](O)N(C2=O)[C@@H]([C@@H](C)CC)C(=O)N(C)[C@@H](Cc2ccc(OC)c(Br)c2)C(=O)N[C@@H](C(C)C)C(=O)O[C@@H]1C [SYMPLOCAMIDE A]")
80.2
>>> observed_measurement("CCCCCCCC(=O)N[C@@H](CCC(=O)O)C(=O)N[C@@H]1C(=O)N[C@@H](CCCCN)C(=O)N[C@H]2CC[C@@H](O)N(C2=O)[C@@H](CC(C)C)C(=O)N(C)[C@@H](Cc2ccc(O)cc2)C(=O)N[C@@H](C(C)C)C(=O)O[C@@H]1C")
0.07
>>> observed_measurement("CC[C@H](C)[C@@H]1NC(=O)[C@H](Cc2ccc(O)cc2)N(C)C(=O)[C@H](Cc2ccccc2)N2C(=O)[C@H](CC[C@H]2O)NC(=O)[C@H](CCCNC(=N)N)NC(=O)[C@@H](NC(=O)[C@H](CC(=O)O)NC(C)=O)[C@@H](C)OC1=O")
4.36
>>> observed_measurement("CCCCCC(=O)N[C@@H](CC(=O)O)C(=O)N[C@@H]1C(=O)N[C@@H](CCCCN)C(=O)N[C@H]2CC[C@@H](O)N(C2=O)[C@@H]([C@@H](C)CC)C(=O)N(C)[C@@H](Cc2ccc(O)cc2)C(=O)N[C@@H](C(C)C)C(=O)O[C@@H]1C")
8.47

---

- ASSAY_NAME: Inhibition of trypsin at 10 uM
Calls of active or inactive are those of the source. The rule behind the calls is not given here.
PROPERTY_MEASURED: Activity

>>> observed_measurement("CC[C@@H](C)[C@@H]1NC(=O)[C@H](Cc2ccc(OC)cc2)N(C)C(=O)[C@H]([C@@H](C)CC)N2C(=O)[C@H](CC[C@H]2O)NC(=O)[C@H](CCc2ccc(O)cc2)NC(=O)[C@@H](NC(=O)[C@H](CCc2ccc(O)cc2)NC(=O)[C@@H](COS(=O)(=O)O)OC)[C@@H](C)OC1=O [OSCILLAPEPTIN A]")
"inactive"
>>> observed_measurement("C/C=C1\\NC(=O)[C@@H](NC(=O)[C@H](CCc2ccc(O)cc2)NC(=O)[C@H](C)NC(=O)[C@H](O)COS(=O)(=O)O)[C@@H](C)OC(=O)[C@H](C(C)C)NC(=O)[C@H](Cc2ccc(O)cc2)N(C)C(=O)[C@H](Cc2ccccc2)N2C(=O)[C@H](CC[C@H]2O)NC1=O [LYNGBYASTATIN 4]")
"inactive"

---

- ASSAY_NAME: Inhibition of chymotrypsin
As shown below, each of these molecules has a reported IC50 value.
PROPERTY_MEASURED: IC50 (µM)

>>> observed_measurement("CC(C)C[C@@H]1NC(=O)[C@@H](NC(=O)[C@@H](NC(=O)[C@H](C)NC(=O)[C@H](CCCc2ccc(O)cc2)NC(=O)[C@H](O)CO)C(C)C)[C@@H](C)OC(=O)[C@H](C(C)C)NC(=O)[C@H](Cc2ccc(O)c(Br)c2)N(C)C(=O)[C@H]([C@@H](C)O)N2C(=O)[C@H](CC[C@H]2O)NC1=O [LARGAMIDE D]")
10
>>> observed_measurement("CC(C)C[C@@H]1NC(=O)[C@@H](NC(=O)[C@@H](NC(=O)[C@@H](C)NC(=O)[C@H](CCCc2ccc(O)cc2)NC(=O)[C@H](O)CO)C(C)C)[C@@H](C)OC(=O)[C@H](C(C)C)NC(=O)[C@H](Cc2ccc(O)c(Cl)c2)N(C)C(=O)[C@H]([C@@H](C)O)N2C(=O)[C@H](CC[C@H]2O)NC1=O [LARGAMIDE E]")
10
>>> observed_measurement("CC[C@H](C)[C@@H]1NC(=O)[C@H](Cc2ccc(OC)cc2)N(C)C(=O)[C@H](CC(C)C)N2C(=O)[C@H](CC[C@H]2OC)NC(=O)[C@H](CC(C)C)NC(=O)[C@@H]2[C@@H](OC1=O)C(C)CN2C(=O)[C@H](CCC(N)=O)NC(C)=O (stereo partly drawn) [NOSTOPEPTIN J]")
3.2
>>> observed_measurement("CC[C@H](C)[C@@H]1NC(=O)[C@H](Cc2ccc(OC)cc2)N(C)C(=O)[C@H](CC(C)C)N2C(=O)[C@H](CC[C@H]2O)NC(=O)[C@H](CC(C)C)NC(=O)[C@@H]2[C@@H](OC1=O)C(C)CN2C(=O)[C@H](CCC(N)=O)NC(C)=O (stereo partly drawn) [NOSTOPEPTIN I]")
3.5
>>> observed_measurement("CC[C@H](C)[C@@H]1NC(=O)[C@H](Cc2ccc(OC)cc2)N(C)C(=O)[C@H]([C@@H](C)O)N2C(=O)[C@H](CC[C@H]2O)NC(=O)[C@H](CC(C)C)NC(=O)[C@@H](NC(=O)[C@H](CCC(N)=O)NC(=O)[C@H](CCc2ccc(O)cc2)NC(=O)[C@@H](O)CO)[C@@H](C)OC1=O [PLANKTOPEPTIN BL1125]")
0.8
>>> observed_measurement("CC[C@H](C)[C@@H]1NC(=O)[C@H](Cc2ccc(O)cc2)N(C)C(=O)[C@H]([C@@H](C)CC)N2C(=O)C(CCC2O)NC(=O)[C@H](CC(C)C)NC(=O)[C@@H]2C(OC1=O)C(C)CN2C(=O)[C@H](CCC(N)=O)NC(C)=O (stereo in doubt; form 1) [NOSTOPEPTIN B]")
1.73
>>> observed_measurement("CC[C@H](C)[C@@H]1NC(=O)[C@H](Cc2ccc(O)cc2)N(C)C(=O)[C@H](CC(C)C)N2C(=O)[C@H](CC[C@H]2O)NC(=O)[C@H](CCC(N)=O)NC(=O)[C@@H](NC(=O)[C@@H](O)Cc2ccc(O)cc2)[C@@H](C)OC1=O [MICROPEPTIN SF909]")
4.4
>>> observed_measurement("CC(C)[C@H](NC(=O)[C@@H](C)NC(=O)[C@H](CCCc1ccc(O)cc1)NC(=O)[C@H](O)CO)C(=O)N[C@@H]1C(=O)N[C@@H](Cc2ccc(O)cc2)C(=O)N[C@H]2CC[C@@H](O)N(C2=O)[C@@H]([C@@H](C)O)C(=O)N(C)[C@@H](Cc2ccc(O)c(Br)c2)C(=O)N[C@@H](C(C)C)C(=O)O[C@@H]1C [LARGAMIDE F]")
4
>>> observed_measurement("CCCC(=O)N[C@@H](Cc1ccccc1)C(=O)N[C@@H](CCC(=O)O)C(=O)N[C@@H]1C(=O)N[C@@H](CC2C=CC(O)CC2)C(=O)N[C@H]2CC[C@@H](O)N(C2=O)[C@@H](C(C)C)C(=O)N(C)[C@@H](Cc2ccccc2)C(=O)N[C@@H]([C@@H](C)CC)C(=O)O[C@@H]1C (stereo partly drawn) [MICROPEPTIN 88D]")
8.96
>>> observed_measurement("CCCC(=O)N[C@@H](CCC(N)=O)C(=O)N1CC(C)C2OC(=O)[C@H]([C@@H](C)CC)NC(=O)[C@H](Cc3ccc(O)cc3)N(C)C(=O)[C@H]([C@@H](C)CC)N3C(=O)C(CCC3O)NC(=O)[C@H](CC(C)C)NC(=O)[C@H]21 (stereo partly drawn) [NOSTOPEPTIN A]")
1.47
>>> observed_measurement("CC(=O)N[C@@H](CCC(N)=O)C(=O)N[C@@H]1C(=O)N[C@@H](CC(C)C)C(=O)N[C@H]2CC[C@@H](O)N(C2=O)[C@@H](Cc2ccccc2)C(=O)N(C)[C@@H](Cc2ccc(O)c(Cl)c2)C(=O)N[C@@H](C(C)C)C(=O)O[C@H]1C [CYANOPEPTOLIN 954]")
0.04
>>> observed_measurement("CC[C@@H](C)[C@@H]1NC(=O)[C@H](Cc2ccc(OC)cc2)N(C)C(=O)[C@H]([C@@H](C)CC)N2C(=O)[C@H](CC[C@H]2O)NC(=O)[C@H](CCc2ccc(O)cc2)NC(=O)[C@@H](NC(=O)[C@H](CCc2ccc(O)cc2)NC(=O)[C@@H](COS(=O)(=O)O)OC)[C@@H](C)OC1=O [OSCILLAPEPTIN A]")
1.89
>>> observed_measurement("CC[C@H](C)[C@@H]1NC(=O)[C@H](Cc2ccc(O)cc2)N(C)C(=O)[C@H](CC(C)C)N2C(=O)[C@H](CC[C@H]2O)NC(=O)[C@H](CC(C)C)NC(=O)[C@@H]2[C@@H](OC1=O)C(C)CN2C(=O)[C@H](CCC(N)=O)NC(C)=O (stereo partly drawn) [NOSTOPEPTIN E]")
3.6
